system: primary cortico-hippocampal neuron cultures; experiment: MTT in primary screening; details: primary screening; table sorted by Aβ1-42
Counter-ions that a name gives are not always drawn.
parameter measured: MTT (% of ctl)

Below are worked cases with known answers.
-- ask Fill blank: measured MTT (% of ctl) of the molecule CCC(=O)O[C@@H](O[P@](=O)(CCCCc1ccccc1)CC(=O)N1C[C@H](C2CCCCC2)C[C@H]1C(=O)O)C(C)C [Fosinopril Sodium] is ____.
-- reply 101.4 % of ctl

-- ask Request: CNCCc1ccccn1 [Betahistine Hydrochloride]
-- reply 107.1 % of ctl

-- ask Request: NS(=O)(=O)c1cc(C(=O)O)c(NCc2ccco2)cc1Cl [Furosemide]
-- reply 101.0 % of ctl

-- ask Request: CCCCNc1cc(C(=O)O)cc(S(N)(=O)=O)c1Oc1ccccc1 [Bumetanide]
-- reply 95.3 % of ctl

Please look at the following molecule next.
-- ask Fill blank: measured MTT (% of ctl) of the molecule C[C@@H]1CCC[C@H](C)N1NC(=O)c1ccc(Cl)c(S(N)(=O)=O)c1 [Clopamide] is ____.
-- reply 99.2 % of ctl

====

test system: primary cortico-hippocampal neuron cultures; test: lactate dehydrogenase (LDH) activity assay in parallel neuron cultures; conditions: primary screening; table sorted by Aβ1-42
Counter-ions that a name gives are not always drawn.
parameter measured: LDH (% of ctl)

Below are worked cases with known answers.
-- ask Entry CCCCC1=NC2(CCCC2)C(=O)N1Cc1ccc(-c2ccccc2-c2nnn[nH]2)cc1 , system primary cortico-hippocampal neuron cultures: what LDH (% of ctl) was measured?
-- reply 112.5 % of ctl

-- ask Request: CCC[C@H](N[C@@H](C)C(=O)N1[C@H](C(=O)O)C[C@@H]2CCCC[C@@H]21)C(=O)OCC
-- reply 72.5 % of ctl

-- ask Request: O=C(O)C(O)C(O)C(=O)O.OCc1cccnc1 (centres unmarked) [Nicotinyl Tartrate]
-- reply 122.6 % of ctl

-- ask Request: Cn1cnc2c1c(=O)[nH]c(=O)n2C
-- reply 118.3 % of ctl

-- ask Request: CO[C@H]1[C@H](O)[C@H](O[C@H]2CC[C@@]3(C)[C@H](CC[C@@H]4[C@@H]3CC[C@]3(C)[C@@H](C5=CC(=O)OC5)CC[C@]43O)C2)O[C@@H](C)[C@@H]1O
-- reply 110.8 % of ctl

Others:
-- ask Entry CCCc1nc2c(C)cc(-c3nc4ccccc4n3C)cc2n1Cc1ccc(-c2ccccc2C(=O)O)cc1 , system primary cortico-hippocampal neuron cultures: what LDH (% of ctl) was measured?
-- reply 111.3 % of ctl

-- ask Request: NCCc1cc(O)c(O)cc1O [Oxidopamine Hydrochloride]
-- reply 103.6 % of ctl

-- ask Request: Cc1ccccc1N1C(=O)c2cc(S(N)(=O)=O)c(Cl)cc2NC1C (centres unmarked)
-- reply 103.7 % of ctl

====

tested on: primary cortico-hippocampal neuron cultures; test: lactate dehydrogenase (LDH) activity assay in parallel neuron cultures; conditions: Primary Screening; table sorted by Aβ1-40
Where a name gives a salt, the structure may show the parent alone.
parameter measured: LDH (% of ctl)

-- ask Fill blank: measured LDH (% of ctl) of the molecule COc1ccccc1OCCNCC(O)COc1cccc2[nH]c3ccccc3c12 (stereo not shown) is ____.
-- reply 148.6 % of ctl

-- ask Request: CCCCC1=NC2(CCCC2)C(=O)N1Cc1ccc(-c2ccccc2-c2nnn[nH]2)cc1
-- reply 112.5 % of ctl

-- ask Request: Cc1ccc(N(CC2=NCCN2)c2cccc(O)c2)cc1 [Phentolamine Hydrochloride]
-- reply 90.7 % of ctl

Please look at the following molecule next.
-- ask Fill blank: measured LDH (% of ctl) of the molecule CC(C)c1nc(N(C)S(C)(=O)=O)nc(-c2ccc(F)cc2)c1/C=C/[C@@H](O)C[C@@H](O)CC(=O)O is ____.
-- reply 298.7 % of ctl

====

tested on: primary cortico-hippocampal neuron cultures; experiment: lactate dehydrogenase (LDH) activity assay in parallel neuron cultures; conditions: primary screening; table sorted by Aβ1-42
Where a name gives a salt, the structure may show the parent alone.
parameter measured: LDH (% of ctl)

-- ask Fill blank: measured LDH (% of ctl) of the compound CN1C(C)(C)CCCC1(C)C [Pempidine Tartrate] is ____.
-- reply 108.4 % of ctl

-- ask Request: CC(=O)CCCCn1c(=O)c2c(ncn2C)n(C)c1=O
-- reply 132.4 % of ctl

Others:
-- ask Fill blank: measured LDH (% of ctl) of the compound C=C(CC)C(=O)c1ccc(OCC(=O)O)c(Cl)c1Cl is ____.
-- reply 101.5 % of ctl

-- ask Request: NS(=O)(=O)c1cc2c(cc1Cl)NC(C1CC3C=CC1C3)NS2(=O)=O (centres unmarked) [Cyclothiazide]
-- reply 110.3 % of ctl

-- ask Request: CCOC(=O)C1=C[C@]2(CC)CCCN3CCc4c(n1c1ccccc41)[C@@H]32
-- reply 111.3 % of ctl

====

MTT (% of ctl) values for the molecules below.
test system: primary cortico-hippocampal neuron cultures; assay: MTT in primary screening; conditions: Primary Screening; table sorted by Aβ1-40
Structures can show the parent of a compound that is named as a salt.

-- ask Fill blank: measured MTT (% of ctl) of the molecule CCCc1nc2c(C)cc(-c3nc4ccccc4n3C)cc2n1Cc1ccc(-c2ccccc2C(=O)O)cc1 is ____.
-- reply 109.4 % of ctl

-- ask Request: C[C@H]1O[C@@H](O[C@H]2[C@@H](O)C[C@H](O[C@H]3[C@@H](O)C[C@H](O[C@H]4CC[C@@]5(C)[C@H](CC[C@@H]6[C@@H]5CC[C@]5(C)[C@@H](C7=CC(=O)OC7)CC[C@]65O)C4)O[C@@H]3C)O[C@@H]2C)C[C@H](O)[C@@H]1O
-- reply 86.0 % of ctl

-- ask Request: NS(=O)(=O)c1cc2c(cc1C(F)(F)F)NC(Cc1ccccc1)NS2(=O)=O (stereo not shown) [Bendrofumethiazide]
-- reply 88.9 % of ctl

-- ask Request: CNC1(C)C2CCC(C2)C1(C)C (stereo not shown) [Mecamylamine Hydrochloride]
-- reply 114.9 % of ctl

-- ask Request: CC[C@@H](C)C(=O)O[C@H]1[C@H](O)[C@H]2[C@@H](CN3C[C@@H](C)CC[C@H]3[C@@]2(C)O)[C@@H]2C[C@]34O[C@]5(O)[C@@H](OC(=O)[C@](C)(O)[C@@H](C)O)CC[C@@]3(C)[C@@H]5[C@@H](OC(C)=O)[C@@H](OC(C)=O)[C@H]4[C@@]21O (stereo in doubt)
-- reply 58.5 % of ctl

-- ask Request: CC(C)(C)NCC(O)COc1cccc2c1CC(O)C(O)C2 (stereo not shown)
-- reply 102.8 % of ctl

-- ask Request: O=C1c2ccccc2C(=O)C1c1ccccc1
-- reply 108.8 % of ctl

-- ask Request: O=C(O)c1cccnc1
-- reply 61.0 % of ctl

-- ask Request: O=c1oc2ccccc2c(O)c1Cc1c(O)c2ccccc2oc1=O
-- reply 97.0 % of ctl

-- ask Request: C[C@H](CS)C(=O)N1CCC[C@H]1C(=O)O
-- reply 62.3 % of ctl

Others:
-- ask Fill blank: measured MTT (% of ctl) of the molecule C=CCc1ccccc1OCC(O)CNC(C)C (stereo not shown) is ____.
-- reply 92.2 % of ctl

-- ask Request: COCCOC(=O)C1=C(C)NC(C)=C(C(=O)OC(C)C)C1c1cccc([N+](=O)[O-])c1 (stereo not shown)
-- reply 115.6 % of ctl

-- ask Request: CCOC(=O)[C@H](CCc1ccccc1)N[C@H]1CCc2ccccc2N(CC(=O)O)C1=O [Benazepril Hydrochloride]
-- reply 99.5 % of ctl

-- ask Request: C[N+]1(CCCCC[N+]2(C)CCCC2)CCCC1 [Pentolinium Tartrate]
-- reply 103.8 % of ctl

-- ask Request: CCOC(=O)NNc1nncc2ccccc12 [Todralazine Hydrochloride]
-- reply 99.5 % of ctl

-- ask Request: CCCC(=O)Nc1ccc(OCC(O)CNC(C)C)c(C(C)=O)c1 (stereo not shown) [Acebutolol Hydrochloride]
-- reply 99.4 % of ctl

====

Tested on: Aβ1-42
Experiment: Aβ1-42 content in conditioned medium of primary cortico-hippocampal neuron cultures from Tg2576 mice (ELISA; primary and secondary dose-response screening)
Format: cell-based, mouse
Conditions: Mus musculus, Neuron, 24 h, primary screening, drug 100 μM, Tg2576 neuron cultures; table sorted by Aβ1-42; read-out: Ab1-42 (% of ctl)
Method: Potential Aβ-lowering activity was assessed for 150 commercially available cardiovascular drugs using primary cortico-hippocampal neuron cultures derived from embryonic Tg2576 (El 6). […] All cardiovascular reagents were obtained from MicroSource Discovery Systems Inc (Gaylordsville, Conn.). […] The influence of drug treatments in Aβ content in the conditioned medium in treated cultures was assessed by assessing steady state levels of Aβ1-40 and Aβ1-42 in the culture media 24 hours after treatment. […]
Where a name gives a salt, the structure may show the parent alone.
Use 80% as the dividing line for activity at 100 µM, with the line itself on the 1 (yes) side and lower values as 0 (no).

Take a look at these entries with their results.
-- ask Identify whether the reported activity at 100 µM of the following compound is 80% or greater: CCCCCCCCNC(C)C(O)c1ccc(SC(C)C)cc1 (stereo not drawn)
-- reply 0 (no)

-- ask Request: NS(=O)(=O)c1cc2c(cc1Cl)NC(C(Cl)Cl)NS2(=O)=O (stereo not drawn) [Trichlormethiazide]
-- reply 1 (yes)

-- ask Request: NNc1nncc2ccccc12 [Hydralazine Hydrochloride]
-- reply 0 (no)

-- ask Request: c1ccc(CC2=NCCN2)cc1 [Tolazoline Hydrochloride]
-- reply 1 (yes)

-- ask Request: Cc1cccc(C)c1OCC(C)N (stereo not drawn) [Mexiletine Hydrochloride]
-- reply 1 (yes)

-- ask Request: CC(C)c1nc(N(C)S(C)(=O)=O)nc(-c2ccc(F)cc2)c1/C=C/[C@@H](O)C[C@@H](O)CC(=O)O
-- reply 0 (no)

Others:
-- ask Identify whether the reported activity at 100 µM of the following compound is 80% or greater: CCCCc1nc(Cl)c(CO)n1Cc1ccc(-c2ccccc2-c2nn[nH]n2)cc1
-- reply 1 (yes)

-- ask Request: Fc1ccc(C(c2ccc(F)cc2)N2CCN(C/C=C/c3ccccc3)CC2)cc1 [Flunarizine Hydrochloride]
-- reply 0 (no)

-- ask Request: CCOC(=O)C1=C(C)NC(C)=C(C(=O)OC)C1c1cccc([N+](=O)[O-])c1 (stereo not drawn)
-- reply 0 (no)

-- ask Request: NS(=O)(=O)c1cc(C(=O)O)c(NCc2ccco2)cc1Cl [Furosemide]
-- reply 1 (yes)

-- ask Request: CNCCc1ccccn1 [Betahistine Hydrochloride]
-- reply 1 (yes)

-- ask Request: COc1ccc(OC)c(C(O)CNC(=O)CN)c1 (stereo not drawn) [Midodrine Hydrochloride]
-- reply 0 (no)

Recorded values, source patent US20100029654A1.
